Target: Androgen Receptor (Homo sapiens, UniProt P10275)
Construct: endogenous in cells; host or cells: VCaP cells
Sequence (P10275 whole entry): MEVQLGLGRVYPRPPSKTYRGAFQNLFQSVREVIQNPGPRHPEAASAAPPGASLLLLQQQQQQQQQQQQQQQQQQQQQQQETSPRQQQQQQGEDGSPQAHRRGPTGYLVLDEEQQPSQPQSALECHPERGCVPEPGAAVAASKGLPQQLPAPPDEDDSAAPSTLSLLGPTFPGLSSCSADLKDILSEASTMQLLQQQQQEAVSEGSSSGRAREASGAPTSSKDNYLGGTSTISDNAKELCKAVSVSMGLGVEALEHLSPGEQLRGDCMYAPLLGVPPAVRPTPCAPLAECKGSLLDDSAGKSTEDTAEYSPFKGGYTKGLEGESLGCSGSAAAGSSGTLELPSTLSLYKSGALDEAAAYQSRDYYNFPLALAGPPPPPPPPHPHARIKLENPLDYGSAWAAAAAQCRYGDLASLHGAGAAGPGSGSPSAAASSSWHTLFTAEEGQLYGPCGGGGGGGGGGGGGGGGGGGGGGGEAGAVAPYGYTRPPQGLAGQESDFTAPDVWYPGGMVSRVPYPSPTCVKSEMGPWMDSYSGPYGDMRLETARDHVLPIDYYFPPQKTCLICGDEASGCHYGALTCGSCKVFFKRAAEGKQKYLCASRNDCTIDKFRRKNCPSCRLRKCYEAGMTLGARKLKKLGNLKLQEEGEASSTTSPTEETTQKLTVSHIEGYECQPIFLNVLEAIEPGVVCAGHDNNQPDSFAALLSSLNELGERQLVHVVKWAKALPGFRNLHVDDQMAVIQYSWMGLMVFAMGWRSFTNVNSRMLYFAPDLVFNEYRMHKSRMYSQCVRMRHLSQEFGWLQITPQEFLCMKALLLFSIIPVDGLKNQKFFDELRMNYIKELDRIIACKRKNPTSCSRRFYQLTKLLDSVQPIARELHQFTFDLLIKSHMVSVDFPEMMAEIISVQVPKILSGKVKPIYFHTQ
Test: Androgen Receptor ELISA assay (PathScan AR ELISA) in VCaP cells: AR degradation, Dmax and DC50
Assay type: cell-based
Conditions: VCaP, read-out: VCaP Dmax (%), VCaP cells; Table 36
Method: 1. Androgen Receptor ELISA Assay. The protocols used with VCaP cells are described below. The androgen receptor ELISA assay was performed using PathScan AR ELISA (Cell Signaling Catalog #12850) according to the following assay steps: […]
Please go through the items and note down their Dmax.

Query: Give the value of Dmax reported for the following: CC(NC(=O)C1CC(O)CN1C(=O)C(NC(=O)COCCN1CC2CC1CN2c1ccc(C(=O)NC2C(C)(C)C(Oc3ccc(C#N)c(Cl)c3)C2(C)C)cn1)C(C)(C)C)c1ccc(-c2scnc2CO)cc1 (centres unmarked) [Example 668]
Result: 26 to 50%

Query: Read off the recorded Dmax for Cc1ncsc1-c1ccc([C@H](C)NC(=O)[C@@H]2C[C@@H](O)CN2C(=O)[C@H](c2cc(CCCCN3CCN(c4ccc(C(=O)N[C@H]5C(C)(C)[C@H](Oc6ccc(C#N)c(Cl)c6)C5(C)C)cn4)CC3)no2)C(C)C)cc1 [Example 830]
Result: < 25%

Query: Give Dmax for the following compound: Cc1cc(O[C@H]2C(C)(C)[C@H](NC(=O)c3ccc(N4CCN(CCOCC(=O)N[C@H](C(=O)N5C[C@H](O)C[C@H]5C(=O)N[C@@H](C)c5ccc(-c6scnc6C)cc5)C(C)(C)C)CC4)nc3)C2(C)C)ccc1C#N [Example 680]
Result: > 71%

Query: Specify Dmax for Cc1ncsc1-c1ccc([C@H](C)NC(=O)[C@@H]2C[C@@H](O)CN2C(=O)[C@H](NC(=O)CN2CCN(CCCc3ccc(C(=O)N[C@H]4C(C)(C)[C@H](Oc5ccc(C#N)c(C#N)c5)C4(C)C)cc3)CC2)C2COC2)cc1 [Example 745] and stop.
Result: < 25%

Query: Input Cc1ncsc1-c1ccc([C@H](C)NC(=O)[C@@H]2C[C@@H](O)CN2C(=O)[C@@H](NC(=O)CN2CCN(CCOCCN3CCN(c4ccc(C(=O)N[C@H]5C(C)(C)[C@H](Oc6ccc(C#N)c(Cl)c6)C5(C)C)cn4)CC3)CC2)C(C)(C)C)cc1 [Example 805] , output reported Dmax.
Result: < 25%

Query: Consider the compound Cc1ncsc1-c1ccc([C@H](C)NC(=O)[C@@H]2C[C@@H](O)CN2C(=O)[C@@H](NC(=O)CN2CCN(CCCN3CCN(c4ccc(C(=O)N[C@H]5C(C)(C)[C@H](Oc6ccc(C#N)c(C#N)c6)C5(C)C)cn4)CC3)CC2)C(C)(C)C)cc1 [Example 715] and give its recorded Dmax.
Result: 51 to 70%

Query: Supply measured Dmax of Cc1ncsc1-c1ccc(CNC(=O)[C@@H]2C[C@@H](O)CN2C(=O)[C@@H](NC(=O)CN2CCC(OCCOc3ccc(C(=O)N[C@H]4C(C)(C)[C@H](Oc5ccc(C#N)c(C(F)(F)F)c5)C4(C)C)cc3)CC2)C(C)(C)C)cc1 [Example 640] in your reply.
Result: > 71%

Query: Tell us which Dmax value is on record for Cc1ncsc1-c1ccc([C@H](C)NC(=O)[C@@H]2C[C@@H](O)CN2C(=O)[C@@H](NC(=O)COCCCCCNc2ccc(C(=O)N[C@H]3C(C)(C)[C@H](Oc4ccc(C#N)c(Cl)c4)C3(C)C)cc2F)C(C)(C)C)cc1 [Example 656]
Result: > 71%
